Experiment: yeast display, Sf9 membrane polyspecificity reagent, FACS + sequencing; frameworks hold sequencing errors
measuredQuantity: polyreactivity (PSR sort gate)

sequenceString	experimentalResult
QVQLVESGGGLVQAGGSLRLICAASGSTFFSYAMGWYRPAPGKERQLVAAITRSGGSTYYADSVKGRFTISRDNAKNTVFLQMNSLKPEDTAVYYCNADLGIGYDYWGQGTHVTVSS	high polyreactivity
QVKLVESGGGLVQAGGSLRLSCAASGFTIRSYVMGWYRQAPGKERELVAAIRRSGGSTYYADSVKGRFTISRDNAKNTVYFQMNSLKREDTAVYYCAAYIWWRDYIEFDYWGQGTQVTVSS	high polyreactivity
